Reported composite z-score by item:
target: Dihydroorotate dehydrogenase (quinone), mitochondrial (Plasmodium falciparum (isolate 3D7)) (UniProt Q08210); assay: PfDHODH enzyme inhibitors, primary screen, biochemical, C-terminal His tag, absorbance 600 nm (AID 1175); details: DCIP absorbance 600 nm, higher = more signal, called active from +8 up or from −8 down;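 also: recombinant parasite enzyme with a five histidine tag at its C terminus; test concentration not given here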
Sequence (Q08210 whole entry, looked up): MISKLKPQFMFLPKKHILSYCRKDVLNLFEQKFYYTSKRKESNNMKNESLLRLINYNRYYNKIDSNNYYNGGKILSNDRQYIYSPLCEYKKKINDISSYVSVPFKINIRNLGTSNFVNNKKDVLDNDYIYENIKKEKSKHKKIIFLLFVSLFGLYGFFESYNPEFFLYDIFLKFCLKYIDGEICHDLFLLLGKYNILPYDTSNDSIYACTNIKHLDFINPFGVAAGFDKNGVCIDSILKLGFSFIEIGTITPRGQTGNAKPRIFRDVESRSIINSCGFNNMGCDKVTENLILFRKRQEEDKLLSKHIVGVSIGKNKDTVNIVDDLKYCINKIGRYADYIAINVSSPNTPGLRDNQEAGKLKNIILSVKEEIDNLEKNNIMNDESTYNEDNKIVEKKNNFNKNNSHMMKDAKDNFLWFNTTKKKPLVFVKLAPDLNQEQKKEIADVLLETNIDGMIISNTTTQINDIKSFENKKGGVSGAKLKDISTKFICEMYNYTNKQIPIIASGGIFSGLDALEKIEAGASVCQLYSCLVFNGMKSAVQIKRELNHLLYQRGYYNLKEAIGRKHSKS

- COMPOUND: "COC(=O)C(CC#Cc1ccc2c(c1)[C@]1(C(=O)N2)[C@H](c2ccccc2OCCO)N2[C@H](c3ccccc3)[C@H](c3ccccc3)OC(=O)[C@H]2[C@@H]1C(=O)N1CCN(c2ncccn2)CC1)C(=O)OC"
  composite z-score: -16.6
- COMPOUND: "C=CC[C@]1(C(=O)NCC(O)CO)N=C(c2ccc(OCCCO)cc2)O[C@H]1c1ccccc1CN=[N+]=[N-] (stereo partly drawn)"
  composite z-score: -0.0887
- COMPOUND: "O=C1c2ccccc2[C@@]2(Cc3ccccc3N(CC(F)(F)F)C2=O)[C@H](c2ccc(CO)cc2)N1Cc1ccccc1"
  composite z-score: -17.8

---

Reported composite z-score values are given for each entry in this list.
test system: Chordin-like protein 2 (CHRDL2); experiment: CHRDL2 small-molecule binders, primary screen, biochemical, small-molecule microarray, 635 nm fluorescence (AID 1126); details: small-molecule microarray binding, fluorescence 635 nm; higher = more signal;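 also: printed compound slides probed with Chrdl2 protein at 4 µg/mL for 1 h at 4 C; score merges 667 nm emission intensity with signal to noise over three replicate slides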

- COMPOUND: "C[C@]1(C(=O)NC2CC2)c2ccccc2C(=O)N(Cc2cc(F)cc(C(F)(F)F)c2)[C@H]1c1ccc(CO)cc1"
  composite z-score: -1.61
- COMPOUND: "O=C(CS)NCCCCCCNC(=O)[C@H]1C[C@H]2C(=O)NCC(=O)N2[C@H]1c1cccc(OCCO)c1"
  composite z-score: 0.283
- COMPOUND: "COc1ccc(C(=O)Nc2cccc(CN3C(=O)[C@]4(O[C@H](CC(=O)N(CCO)Cc5ccccc5)[C@@H]([Si](C)(C)c5ccc(OC)cc5)[C@@H]4C)c4ccccc43)c2)cc1"
  composite z-score: 0.972
- COMPOUND: "Cc1ccc(S(=O)(=O)N2[C@@H](c3ccccc3)C(C(=O)O)=CC[C@H]2c2ccc(F)cc2)cc1"
  composite z-score: -1.09
- COMPOUND: "C=CCNC(=O)[C@@H]1[C@H]2C(=O)O[C@H](c3ccccc3)[C@H](c3ccccc3)N2[C@H](c2ccc(OCCO)cc2)[C@@]12C(=O)Nc1ccc(C#CCNC(N)=O)cc12"
  composite z-score: -0.822
- COMPOUND: "O=C1C2C=CC(C(O)C(c3ccccc3)c3ccccc3)N(Nc3ccccc3F)C2C(=O)N1c1ccccc1 (centres undefined)"
  composite z-score: -0.0392
- COMPOUND: "COC(=O)C(CC#Cc1ccc2c(c1)[C@]1(C(=O)N2)[C@H](C(=O)NC[C@H](O)c2ccccc2)[C@H]2C(=O)O[C@H](c3ccccc3)[C@H](c3ccccc3)N2[C@@H]1c1ccc(O)cc1)C(=O)OC"
  composite z-score: -0.275
- COMPOUND: "COc1ccc([Si](C)(C)[C@H]2[C@H](CCO)O[C@@]3(C(=O)N(Cc4ccccc4)c4ccc(NC(=O)[C@H](C)O)cc43)[C@@H]2C)cc1"
  composite z-score: 0.0883
- COMPOUND: "COc1ccc(NN2C(C(O)c3ccc(F)cc3)C=CC3C(=O)N(C4CCCCC4)C(=O)C32)cc1 (centres undefined)"
  composite z-score: -0.0299
- COMPOUND: "C=CCNC(=O)[C@H]1[C@@H]2C(=O)O[C@@H](c3ccccc3)[C@@H](c3ccccc3)N2[C@@H](c2ccc(OCCO)cc2)[C@]12C(=O)N(C(=O)OCCOC)c1ccc(C#CCC(C(=O)OC)C(=O)OC)cc12"
  composite z-score: 0.6
- COMPOUND: "COC(=O)C1=CC(c2ccc(CO)cc2)=CC(C2CC2)N(Cc2cc3c(cc2Br)OCO3)C=C1C(=O)OC (centres undefined)"
  composite z-score: 0.0562
- COMPOUND: "C=CCNC(=O)[C@@H]1[C@H]2C(=O)O[C@H](c3ccccc3)[C@H](c3ccccc3)N2[C@H](c2ccc(OCCO)cc2)[C@@]12C(=O)Nc1ccc(C#CC3=CCCCC3)cc12"
  composite z-score: 0.0821
- COMPOUND: "CC1C2C(CCCO)=CC(C3C(=O)N(C(N)=O)C(=O)C23)N1Cc1cccc(OC(F)(F)F)c1 (centres undefined)"
  composite z-score: 0.0627
- COMPOUND: "CC(C)c1ccc(NN2C(C(O)C(C)c3ccccc3)C=CC3C(=O)N(c4ccccc4)C(=O)C32)cc1 (centres undefined)"
  composite z-score: 0.306

Ref: PubChem BioAssay
